Measured Target: DPP4 (Homo sapiens, UniProt P27487)
Sequence (P27487 whole entry): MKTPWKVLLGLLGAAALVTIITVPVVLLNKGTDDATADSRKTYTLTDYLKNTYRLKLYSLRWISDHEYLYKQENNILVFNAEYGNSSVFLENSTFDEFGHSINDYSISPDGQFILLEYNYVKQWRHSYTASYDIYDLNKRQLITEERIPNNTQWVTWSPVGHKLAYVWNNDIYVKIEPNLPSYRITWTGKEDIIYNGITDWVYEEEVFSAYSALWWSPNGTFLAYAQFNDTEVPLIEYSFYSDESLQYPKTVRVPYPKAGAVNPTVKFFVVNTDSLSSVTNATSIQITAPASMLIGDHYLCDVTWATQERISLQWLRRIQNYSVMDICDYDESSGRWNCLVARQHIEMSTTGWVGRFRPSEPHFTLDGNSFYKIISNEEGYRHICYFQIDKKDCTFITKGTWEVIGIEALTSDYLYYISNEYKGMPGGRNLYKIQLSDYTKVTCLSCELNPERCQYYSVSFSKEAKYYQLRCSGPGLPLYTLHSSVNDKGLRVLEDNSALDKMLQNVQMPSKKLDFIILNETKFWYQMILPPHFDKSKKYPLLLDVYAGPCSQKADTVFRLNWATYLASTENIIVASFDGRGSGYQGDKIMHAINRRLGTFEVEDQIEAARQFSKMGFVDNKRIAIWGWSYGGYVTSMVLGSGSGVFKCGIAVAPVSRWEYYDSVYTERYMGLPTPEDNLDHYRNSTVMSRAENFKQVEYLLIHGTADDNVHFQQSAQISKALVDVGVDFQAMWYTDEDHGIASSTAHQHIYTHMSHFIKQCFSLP
Experimental Protocol: DPP4 activity assay (DPP4 inhibitor screening assay kit, Cayman)
Type: biochemical
Parameters: purchased Cayman Chemical, Ann Arbor, MI, USA
Condition Summary: 10 µM; control mean 100.0; Figure 1A raw data
Experimental Endpoint: DPP4 activity in library screen, Exp 2
Just the number.

Below: 4 compounds and their reported DPP4 activity in library screen, Exp 2.
{"Compound": "C=C1C[C@@]2(O)O[C@@]3(C[C@H]2C(C)C)[C@@H](C)CC[C@@H]13", "Measured Target": "DPP4 (Homo sapiens, UniProt P27487)", "Value": 99.6}
{"Compound": "COc1ccc(-c2coc3cc(O)cc(O)c3c2=O)cc1", "Measured Target": "DPP4 (Homo sapiens, UniProt P27487)", "Value": 100.9}
{"Compound": "Cl.N=c1ccn2c(n1)O[C@H]1[C@H](O)[C@@H](CO)O[C@H]12 [Cyclocytidine HCl]", "Measured Target": "DPP4 (Homo sapiens, UniProt P27487)", "Value": 95}
{"Compound": "C[N+](C)(C)CC(O)CC(=O)O.[Cl-] (racemic) [DL-Carnitine HCl]", "Measured Target": "DPP4 (Homo sapiens, UniProt P27487)", "Value": 93.1}

With those in mind, consider the next compound.
In: Name the value of DPP4 activity in library screen, Exp 2 reported for COc1cc(CCC(C)=O)ccc1O when tested on DPP4 (Homo sapiens, UniProt P27487).
Out: 96.8

----------
Measured Target: UniProt P27487
Experimental Protocol: DPP4 activity assay (DPP4 inhibitor screening assay kit, Cayman)
Assay type: biochemical
Parameters: purchased Cayman Chemical, Ann Arbor, MI, USA
Condition Summary: 0.5 h, 10 µM; control mean 100.0; Figure 1A raw data; read-out: DPP4 activity in library screen, Exp 1
Experimental Endpoint: remaining activity at 10 µM (%)
All answers are understood in %, so give the number only.

{"Compound": "OC[C@H]1O[C@@H](Oc2ccc(O)cc2)[C@H](O)[C@@H](O)[C@@H]1O [Arbutin]", "Measured Target": "UniProt P27487", "Experimental Endpoint": "remaining activity at 10 µM", "Quantity Unit": "%", "Value": 95.9}
{"Compound": "O=c1cc(-c2ccccc2)oc2cc(O)cc(O)c12 [Chrysin]", "Measured Target": "UniProt P27487", "Experimental Endpoint": "remaining activity at 10 µM", "Quantity Unit": "%", "Value": 85.4}
{"Compound": "O=c1cc(-c2ccc(O)c(O)c2)oc2cc(O)cc(O)c12 [Luteolin]", "Measured Target": "UniProt P27487", "Experimental Endpoint": "remaining activity at 10 µM", "Quantity Unit": "%", "Value": 61.4}
{"Compound": "C[C@H]1CC[C@]2(NC1)O[C@H]1C[C@H]3[C@@H]4CC[C@H]5C[C@@H](O[C@@H]6O[C@H](CO)[C@H](O[C@@H]7O[C@H](CO)[C@@H](O)[C@H](O[C@@H]8OC[C@@H](O)[C@H](O)[C@H]8O)[C@H]7O[C@@H]7O[C@H](CO)[C@@H](O)[C@H](O)[C@H]7O)[C@H](O)[C@H]6O)CC[C@]5(C)[C@H]4CC[C@]3(C)[C@H]1[C@@H]2C [Tomatine]", "Measured Target": "UniProt P27487", "Experimental Endpoint": "remaining activity at 10 µM", "Quantity Unit": "%", "Value": 103}
{"Compound": "COc1cc(O)c2c(c1)C(=O)c1cc(C)cc(O)c1C2=O [Rheochrysidin]", "Measured Target": "UniProt P27487", "Experimental Endpoint": "remaining activity at 10 µM", "Quantity Unit": "%", "Value": 44.7}

In: Give the reported remaining activity at 10 µM for this compound. COc1ccc2cc1Oc1ccc(cc1)C[C@H]1c3cc(c(OC)cc3CCN1C)Oc1c(OC)c(OC)cc3c1[C@H](C2)N(C)CC3 [Tetrandrine]
Out: 99.9

In: Output measured remaining activity at 10 µM for this item: O=c1c(-c2ccc(O)cc2)coc2c([C@@H]3O[C@H](CO)[C@@H](O)[C@H](O)[C@H]3O)c(O)ccc12 [Puerarin]
Out: 94.4

In: Note remaining activity at 10 µM for the compound shown: OCc1ccccc1O[C@@H]1O[C@H](CO)[C@@H](O)[C@H](O)[C@H]1O [Salicin]
Out: 72

In: Name the recorded remaining activity at 10 µM of the compound listed here: O=c1c(O)c(-c2ccc(O)c(O)c2)oc2cc(O)ccc12 [Fisetin]
Out: 72.3

In: Quote remaining activity at 10 µM reported for O=C(O)[C@H]1O[C@@H](Oc2cc3oc(-c4ccccc4)cc(=O)c3c(O)c2O)[C@H](O)[C@@H](O)[C@@H]1O [Baicalin] please.
Out: 71.4

In: Determine its reported remaining activity at 10 µM: c1cc2c(cc1[C@H]1OC[C@H]3[C@@H]1CO[C@@H]3c1ccc3c(c1)OCO3)OCO2 [Sesamin]
Out: 93.7

----------
Reported remaining activity at 10 µM is given for each of the following compounds.
Measured Target: DPP4 (Homo sapiens, UniProt P27487)
Experimental Protocol: DPP4 activity assay (DPP4 inhibitor screening assay kit, Cayman)
Assay type: biochemical
Parameters: purchased Cayman Chemical, Ann Arbor, MI, USA
Condition Summary: 0.5 h, 10 µM; control mean 100.0; Figure 1A raw data; read-out: DPP4 activity in library screen, Exp 2
The reply should contain only the number, in %.

{"Compound": "O=c1c(-c2ccc(O)cc2)coc2c([C@@H]3O[C@H](CO)[C@@H](O)[C@H](O)[C@H]3O)c(O)ccc12 [Puerarin]", "Quantity Unit": "%", "remaining activity at 10 µM": 98}
{"Compound": "O=c1[nH]cnc2nc[nH]c12 [Hypoxanthine]", "Quantity Unit": "%", "remaining activity at 10 µM": 99.3}
{"Compound": "O=c1cc(-c2ccccc2)oc2cc(O)cc(O)c12 [Chrysin]", "Quantity Unit": "%", "remaining activity at 10 µM": 87.6}
{"Compound": "CN(C)CCc1ccc(O)cc1 [Hordenine]", "Quantity Unit": "%", "remaining activity at 10 µM": 95.7}

Read the next record carefully.
In: # return recorded remaining activity at 10 µM for entry Oc1cc2c(cc1O)[C@@H]1c3ccc(O)c(O)c3OC[C@]1(O)C2 [Hematoxylin]
Out: 72

----------
Measured Target: DPP4 (Homo sapiens, UniProt P27487)
Experimental Protocol: DPP4 activity assay (DPP4 inhibitor screening assay kit, Cayman);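 further: fluorescence read at excitation 360 nm and emission 460 nm after the enzyme reaction ran 30 min at 37 °C in a 96-well plate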
Assay type: biochemical
Parameters: purchased Cayman Chemical, Ann Arbor, MI, USA
Condition Summary: 0.5 h, 10 µM; control mean 100.0; Figure 1A raw data; read-out: DPP4 activity in library screen, Exp 3
The threshold is 90%. Values of remaining activity at 10 µM beneath it are tagged Fulfilled; values meeting or exceeding it are tagged Not fulfilled.

Look over these answered cases.
{"Compound": "O=c1c(-c2ccc(O)cc2)coc2c([C@@H]3O[C@H](CO)[C@@H](O)[C@H](O)[C@H]3O)c(O)ccc12", "Measured Target": "DPP4 (Homo sapiens, UniProt P27487)", "Cat": "Not fulfilled"}
{"Compound": "O=c1[nH]cnc2c1ncn2[C@@H]1O[C@H](CO)[C@@H](O)[C@H]1O", "Measured Target": "DPP4 (Homo sapiens, UniProt P27487)", "Cat": "Not fulfilled"}
{"Compound": "Cc1cc(O)c2c(c1)C(=O)c1cc(O)cc(O)c1C2=O", "Measured Target": "DPP4 (Homo sapiens, UniProt P27487)", "Cat": "Fulfilled"}
{"Compound": "OC[C@H]1O[C@@H](Oc2ccc(O)cc2)[C@H](O)[C@@H](O)[C@@H]1O", "Measured Target": "DPP4 (Homo sapiens, UniProt P27487)", "Cat": "Not fulfilled"}
{"Compound": "O=C1c2c(O)cc(O)cc2OC(c2ccc(O)c(O)c2)C1O (stereo not drawn) [Taxifolin (Dihydroquercetin), Taxifolin]", "Measured Target": "DPP4 (Homo sapiens, UniProt P27487)", "Cat": "Fulfilled"}
{"Compound": "Oc1cc2c(cc1O)[C@@H]1c3ccc(O)c(O)c3OC[C@]1(O)C2", "Measured Target": "DPP4 (Homo sapiens, UniProt P27487)", "Cat": "Fulfilled"}

In: Quick check: remaining activity at 10 µM of O=C(O)CCCc1c[nH]c2ccccc12 under 90%?
Out: Not fulfilled

In: API: query returns whether the compound falls strictly under 90% in remaining activity at 10 µM. Query: Cc1cc2c(C(C)C)c(O)c(O)c(C=O)c2c(O)c1-c1c(C)cc2c(C(C)C)c(O)c(O)c(C=O)c2c1O
Out: Fulfilled

In: Item O=c1c2ccccc2oc2ccccc12 : remaining activity at 10 µM beneath 90%, strictly?
Out: Fulfilled

In: Threshold test, remaining activity at 10 µM < 90%: Cc1coc2c1C(=O)C(=O)c1c-2ccc2c1CCCC2(C)C
Out: Fulfilled

In: Bench note: check whether O=C(/C=C/C=C/c1ccc2c(c1)OCO2)N1CCCCC1 shows remaining activity at 10 µM below 90%
Out: Fulfilled
